Values compiled from PubChem BioAssay (NCI).

System: ACHN renal
Test: NCI-60 one-dose screen, 48 h
Settings: 10 µM unless noted
Compounds without any hit were thinned out: in the full panel of roughly 83,000, 20% have a hit. Active and inactive are the calls of the source. Rule for the calls: active = growth percent below 10; inactive = the rest.
Choose the fitting class; nothing outside 1 for active, -1 for inactive is accepted.

{"Compound": "C[C@H]1[C@H](C)CC[C@]2(C(=O)O)CC[C@]3(C)C(=CC[C@@H]4[C@@]5(C)C[C@@H](Cc6cn([C@@H]7O[C@H](CO)[C@@H](O)[C@H](O)[C@H]7O)nn6)[C@H](O)C(C)(C)[C@@H]5CC[C@]43C)[C@H]12", "Discrete Label": -1}
{"Compound": "COc1cc(C(=O)/C=C/c2c(-c3cccs3)nc3ccccn23)cc(OC)c1OC", "Discrete Label": 1}
{"Compound": "Cc1nc2ccccc2c(/C=C/c2ccc(C(F)(F)F)cc2)c1C(=O)/C=C/c1ccccc1", "Discrete Label": 1}

Q) How was CC1COCC(C)N1C1=C(Cl)C(=O)c2ccccc2C1=O (stereo not given) classified in this test?
A) -1

Q) Lab log entry: Cc1ncc(C(=O)Nc2ccc(CN3CCN(C)CC3)c(C(F)(F)F)c2)cc1C#Cc1cnc(N)c2ccncc12 — outcome as called in the assay?
A) 1
